- System: SN12C renal
- protocol-summary: NCI tumour cell line growth inhibition, 48 h
reported-endpoint: GI50

| compound | reported-endpoint | result |
| --- | --- | --- |
| N=C(N)/N=C(\N)c1c(-c2cc(O)ccc2O)nc2sccn12 | GI50 | 19.4 µM |
| C=C(C)[C@@H]1CC[C@]2(C(N)=O)CC[C@]3(C)[C@H](CC[C@@H]4[C@@]5(C)CC[C@H](O)C(C)(C)[C@@H]5CC[C@]43C)[C@@H]12 | GI50 | 3 µM |
| CCN1C(=O)N(CC)C2C1NN=c1s/c(=C\c3ccccc3F)c(=O)n12 (stereo unspecified) | GI50 | 0.0522 µM |
| NC(=NCCCC1(c2ccccc2)CCCC1)Nc1ccc(Cl)cc1 | GI50 | 1.77 µM |
| CN[C@@H](C)C(=O)N[C@H]1CN(C(=O)CC(C)C)CC[C@H]2CC[C@@H](C(=O)NC(c3ccccc3)c3ccccc3)N2C1=O | GI50 | > 100 µM |
| NCCCCCCCCn1c2c(c3ccccc3c1=O)C(=O)c1ccccc1-2 | GI50 | 3.45 µM |
| C/C1=C/C(=O)O[C@@H]2C[C@@H](CC[C@H](C)/C=C\C=C\CC1)O[C@@](O)([C@@H]1CSC(=O)N1CO)C2 | GI50 | 0.0485 µM |
| COC(=O)C(Cc1cnc[nH]1)NC(=O)CNC(=O)CCCn1c(=O)c2c3ccccc3n(C)c2n2nnc(-c3ccccc3)c12 (stereo unspecified) | GI50 | > 100 µM |
| COc1cccc(Cn2c(-c3nonc3N)nc3ccccc32)c1 | GI50 | 0.751 µM |
| CNC(=O)c1c(NC(=O)c2ccc(C(F)(F)F)cc2)sc2c1CCC(=O)C2 | GI50 | 0.69 µM |
| O=C1/C(=C\c2ccc(F)cc2)CN(C(=O)c2ccc([N+](=O)[O-])cc2)C/C1=C\c1ccc(F)cc1 | GI50 | 2.19 µM |
| COc1c2c3ccccc3nc-2n(C)c2ccccc12 | GI50 | 7.27 µM |
| COc1cc2c(F)nccc2cc1C(=O)N[C@@H](c1ccc(F)c(Cl)c1)[C@@H]1C[C@@H](O)CN1 | GI50 | 8.08 µM |
| CCN(CC)CC.CCOc1ccc(NC(=O)N=C=[N-])cc1.[CH-]1CCCCC1.[CH-]1CCCCC1.[CH-]1CCCCC1.[Cl-].[Sn+4] | GI50 | 0.0233 µM |
| Cc1cccc(-c2nn3c(c2-c2ccnc4ccc(C(N)=O)cc24)CCC3)n1 | GI50 | > 100 µM |
| CC(C)CCSC1=CC(=O)c2ccccc2C1=O | GI50 | 12.9 µM |
